Target: Hexose transporter 1 (Plasmodium falciparum) (UniProt O97467)
Assay: ST_JUDE_LEISH: Cytotoxicity at 2uM final concentration against transgenic Leishmania Mexicana promastigotes LmPfHT that are glucose transport deficient and complemented with the Plasmodium falciparum hexose transporter. Activity is measured by DNA content using SYBR green in vitro
Assay type: functional
quantity: inhibition (%)
Just the number please, in %, no unit attached.

Assign inhibition to the following record: CC(=O)C1(c2ccccc2)CCN(CCC2(c3ccc(Cl)c(Cl)c3)CN(C(=O)C3CCCCC3)CCO2)CC1 (stereo unspecified)
2.27

Assign inhibition to the following record: Oc1ccc(Cl)cc1CN1CCC(CCOC(c2ccccc2)c2ccc(Cl)cc2)CC1 (stereo unspecified)
25.3

Assign inhibition to the following record: Cc1nc(C)c(-c2ccc(Oc3ccc(OC(F)(F)F)cc3)cc2)c(OC(=O)N(CCNC(C)C)C(C)C)c1Br
8.45

Assign inhibition to the following record: CS(=O)(=O)Nc1ccc2[nH]cc(C3CC4CCC(C3)N4CC3CCC(NC(=O)/C=C/c4ccc(Cl)c(Cl)c4)CC3)c2c1 (stereo unspecified)
5.37

Assign inhibition to the following record: COc1cc(C=CC(=O)N2CCC(CN3CCC(c4c[nH]c5ccccc45)CC3)CC2)cc(OC)c1
0.72

Assign inhibition to the following record: Cc1nc(N)nc(N)c1-c1cccc(Cl)c1
4.7

Assign inhibition to the following record: CS(=O)(=O)Nc1ccc2[nH]cc(C3CCN(CC4CCN(C(=O)/C=C/c5ccc(Cl)c(Cl)c5)CC4)CC3)c2c1
3.49

Assign inhibition to the following record: Cc1cc(O)cc2c(C3CCN(CC4CCN(C(=O)/C=C/c5ccc(Cl)c(Cl)c5)CC4)CC3)c[nH]c12
-0.37

Assign inhibition to the following record: O=C(Nc1ccc(Oc2ccccc2)cc1)N1CCC(CN2CCC(c3c[nH]c4ccccc34)CC2)CC1
2.58

Assign inhibition to the following record: O=C1Nc2cccc3c2C1(CCCCN1CC=C(c2c[nH]c4ncccc24)CC1)CCC3 (stereo unspecified)
4.08

Assign inhibition to the following record: COc1cc(CN2CCN(c3ccnc(N(C)C4CCN(C)CC4)n3)CC2)cc(Cl)c1O
7.29
